System: CCRF-CEM leukemia
test description: NCI-60 one-dose screen, 48 h
protocol conditions: 10 µM unless noted
Compounds without any hit were thinned out: in the full panel of roughly 83,000, 20% have a hit. The source made the active and inactive calls. How the source made its calls: active means growth percent below 10; inactive means the rest.
In this exercise, the only acceptable responses are True = active, False = inactive

COc1cc(NS(=O)(=O)C(C)C)cc(-c2cc(-c3ccc(N4CCNCC4)cc3)cnc2N)c1: False

Now take the following compound into account.
What call does the record list for Nc1nc(CSc2n[nH]c(N)n2)nc(Nc2ccccc2)n1 ?
False

* * *

System: M14 melanoma
test description: NCI-60 one-dose screen, 48 h (100 = growth as untreated, 0 = no growth, -100 = all killed)
protocol conditions: 10 µM unless noted
Compounds without any hit were thinned out: in the full panel of roughly 83,000, 20% have a hit.
Please use Condition met whenever growth is not below 80%, and Condition not met whenever it is.

C/C=C(/C)C(=O)O[C@@H]1CC(C)(C)CC2C34OC(=O)[C@@]21CC[C@@]3(C)[C@]1(C)CCC2C(C)(C)C(=O)CC[C@]2(C)C1C[C@@H]4Cl (some centres undefined): Condition met
CCOC(=O)c1cc2c(n1Cc1cc(OC)cc(OC)c1Br)-c1nc(NC(C)=O)sc1CCC2: Condition met
CN(C)C(=O)c1cc2cnc(Nc3ccc(-c4csc5c(=S)cc(N6CCOCC6)oc45)cc3)nc2n1C1CCCC1: Condition not met
O=C(N=Nc1c(O)[nH]c2ccccc12)Nc1ccc(Br)cc1: Condition met
Cc1ccc(C(=O)N(CCCN)[C@@H](c2nc3cc(Cl)ccc3c(=O)n2Cc2ccccc2)C(C)C)cc1: Condition not met

Dear colleague, could you confirm whether Nc1ncc(-c2ccc3ncnc(N4CCc5ccc(Cl)cc54)c3c2)cc1C(F)(F)F has growth at or above 80%?
Condition not met

Is the recorded value of growth equal to or greater than 80% for this compound? COc1ccc(NC(=O)Nc2ccccc2CNc2nc(Nc3ccc(OCCN4CCCC4)cc3)ncc2Cl)cc1
Condition not met

Is the recorded value of growth equal to or greater than 80% for this compound? O=C(CN1C(=O)S/C(=C\C(Cl)=C\c2ccccc2)C1=O)NC1C=CS(=O)(=O)C1 (centres undefined)
Condition not met

Please indicate if the recorded growth for COc1ccc(-c2nn3c(-c4cc(F)c(Cl)cc4Cl)nnc3s2)cc1 meets or exceeds 80%.
Condition not met

Does growth meet or surpass 80% for COc1cc(F)c(/C=C/c2cc(/C=C/c3cc(OC)c(OC)cc3F)n(-c3cc(F)cc(F)c3)n2)cc1OC ?
Condition not met

Check the entry Cc1ccc(S(=O)(=O)Nc2cc(Sc3ccccc3)c(O)c3ccccc23)cc1 : does growth equal or exceed 80%?
Condition met

Could you please find out whether CCCCCCNC(=O)Oc1ccc(/C(=C(/CC)Cc2ccccc2)c2ccc(OCCCN(C)C)cc2)cc1 has growth that meets 80% or exceeds it?
Condition met

Identify whether the reported growth of the following compound is 80% or greater: COC(=O)c1nc(-c2ccccc2)oc1S(=O)(=O)N(C)CCO
Condition not met
